Each recorded value in this set is attributed to paper PMC12028158.

Each entry below carries its recorded activity at 10 µM.
- Tested on: RXF 393
- TEST_PROTOCOL: NCI60 one-dose screen
- Assay type: cell-based
- TEST_SETTINGS: Homo sapiens; RXF 393, 10 μM, one-dose; read-out: Growth percent
Give the value in % but do not write % after it.

Worked cases, answers included:
CC[C@]12C=CCN3CC[C@@]4(c5ccc(OC)cc5N(C)[C@H]4[C@@](O)(C(=O)OC)[C@@H]1OC(=O)CCCC[P+](c1ccc(F)cc1)(c1ccc(F)cc1)c1ccc(F)cc1)[C@@H]32 [10c]; -9.93
CC[C@]12C=CCN3CC[C@@]4(c5ccc(OC)cc5N(C)[C@H]4[C@@](O)(C(=O)OC)[C@@H]1OC(=O)CCC[P+](c1cc(C)c(OC)c(C)c1)(c1cc(C)c(OC)c(C)c1)c1cc(C)c(OC)c(C)c1)[C@@H]32 [9e]; -98.6
CCC12C=CCN3CCC4(c5ccc(OC)cc5N(C)C4C(O)(C(=O)OC)C1OC(=O)c1ccc(C[P+](c4ccccc4)(c4ccccc4)c4ccccc4)cc1)C32 (centres unmarked) [compound 12]; -61.8
CC[C@]12C=CCN3CC[C@@]4(c5ccc(OC)cc5N(C)[C@H]4[C@@](O)(C(=O)OC)[C@@H]1OC(=O)CCC[P+](c1ccccc1)(c1ccccc1)c1ccccc1)[C@@H]32 [compound 3, reference compound]; 28.9

Challenge: Any idea what activity at 10 µM was measured for CC[C@]12C=CCN3CC[C@@]4(c5ccc(OC)cc5N(C)[C@H]4[C@@](O)(C(=O)OC)[C@@H]1OC(=O)CCC[P+](c1ccc(OC)cc1)(c1ccc(OC)cc1)c1ccc(OC)cc1)[C@@H]32 [9b] ?
Response given: -92.6
